In this section, each of the compounds is paired with its reported RFP signal change.
- method_description: GFP drop in mixed WT/humanized-ribosome E. coli culture – GFP/RFP fluorescence, OD600, single point, bacterial rRNA inhibitor project, primary screen (AID 720706)
- stated_conditions: E. coli WT GFP vs humanized-ribosome RFP mutants, 24 h; measured here: RFP humanized mutant strains, DMSO median 0, no signal -100, concentration not given here
The whole screen tested about 350,000 compounds, of which about 5,500 (1.6%) were called active. The entries come from a sample that favours actives as a whole.

compound: Cc1ccc(-c2cnc3c(c2)C(=O)N([C@H](C)CO)C[C@H](C)[C@@H](CN(C)S(C)(=O)=O)O3)cc1
RFP signal change (%): 1.43
--
compound: Nc1nc(SCC(=O)NCCN2CCOCC2)nc2sc3c(c12)CCC3
RFP signal change (%): -0.37
--
compound: COc1ccc2c3c([nH]c2c1)[C@@H](CO)N(C(=O)C1CC1)CC31CCN(C(=O)c2ccncc2)CC1
RFP signal change (%): -3.09
--
compound: CCOc1cc(/C=C2\SC(N3CCCCC3)=NC2=O)ccc1O
RFP signal change (%): 8.23
--
compound: Cn1c(SCC(=O)N2CCCCC2)nc2c(c1=O)SCC2
RFP signal change (%): -0.99
--
compound: Cc1noc(C)c1S(=O)(=O)N(C)C[C@@H]1OCCCC[C@H](C)Oc2ccc(NC(=O)CCC(F)(F)F)cc2C(=O)N([C@H](C)CO)C[C@H]1C
RFP signal change (%): 2.1
--
compound: COCC#Cc1ccc2c(c1)O[C@H](CN(C)C(=O)CC1CC1)[C@@H](C)CN([C@@H](C)CO)S2(=O)=O
RFP signal change (%): -1.84
--
compound: CCN(CC)S(=O)(=O)c1ccc(N2CCCC2)c(NC(=O)c2ccc([N+](=O)[O-])o2)c1
RFP signal change (%): 9.95
--
compound: O=C(COC(=O)Cc1ccc(Cl)cc1Cl)NCc1ccco1
RFP signal change (%): 0.815
--
compound: S=C(Nc1ccc(Br)cc1Cl)N1CCC2(CC1)OCCO2
RFP signal change (%): -6.29
--
compound: C=C(C)CSc1nc(N)c2c3c(sc2n1)CCC3
RFP signal change (%): -10.7
--
compound: COc1cccc(CC(=O)N2CCN(C(=O)C(=O)c3cccc(C(F)(F)F)c3)CC2)c1
RFP signal change (%): 7.12
--
compound: CC(=O)Nc1ccc(C=Cc2ccc([N+](=O)[O-])cc2)cc1
RFP signal change (%): -1.71
--
compound: CC(=O)/C(=N\Nc1ccc(Cl)cc1Cl)Sc1cccc2cccnc12
RFP signal change (%): -1.79
--
compound: CN1C(=O)c2cc(NC(=O)NC3CCCC3)ccc2OC[C@@H]2O[C@@H](CC(=O)O)CC[C@H]21
RFP signal change (%): -1.81
--
compound: Cc1cccc(CSc2nc3c(c(=O)n2C)SCC3)c1
RFP signal change (%): -2.49
--
compound: C[C@@H]1CN([C@@H](C)CO)S(=O)(=O)c2ccc(-c3cccc(C(=O)N(C)C)c3)cc2O[C@@H]1CN(C)C(=O)Nc1ccccc1
RFP signal change (%): -2.53
--
compound: O=C(CCC(=O)c1cccs1)NC1CCCCCC1
RFP signal change (%): 0.589
--
compound: CCN(CC)S(=O)(=O)c1ccc(N2CCOCC2)c(NC(=O)c2ccc(=O)n(C)n2)c1
RFP signal change (%): -3.6
--
compound: O=C(CC1CC1)N1[C@@H](CO)[C@H](c2ccccc2)C12CN(Cc1cccnc1)C2
RFP signal change (%): 1.37
--
compound: O=C1CN(S(=O)(=O)Cc2ccccc2)C[C@@H]2[C@@H](c3ccc(C#Cc4cccc(F)c4)cc3)[C@@H](CO)N12
RFP signal change (%): 26.9
--
compound: O=C(NC(=S)Nc1ccc(Cl)cc1Cl)C1CC1
RFP signal change (%): 2.17
--
compound: CO[C@H]1CN(C)C(=O)c2cc(NC(=O)c3cnccn3)ccc2OC[C@H](C)N(C(=O)C2CC2)C[C@H]1C
RFP signal change (%): -0.83
--
compound: FC(F)(F)Oc1ccc(NC(=S)NCc2ccccc2)cc1
RFP signal change (%): -19.9
--
compound: COc1ccc(S(=O)(=O)N[C@@H]2CC[C@@H](CC(=O)N3CCC(Cc4ccccc4)CC3)O[C@@H]2CO)cc1
RFP signal change (%): 10.2
--
compound: CC(C)=C1SC(N2CCN(c3ccc(C)c(Cl)c3)CC2)=NC1=O
RFP signal change (%): -2.71
--
compound: C/C=C/c1ccc2c(c1)O[C@H](CN(C)C(=O)Cc1ccncc1)[C@@H](C)CN([C@@H](C)CO)S2(=O)=O
RFP signal change (%): 0.444
--
compound: CCCSC1=C(C#N)C(c2ccccc2C)C(C(=O)OC)C(=O)N1 (stereo not given)
RFP signal change (%): -1.26
--
compound: COc1ccccc1NC(=O)N[C@H]1CC[C@@H](CC(=O)NCc2ccc(Cl)c(Cl)c2)O[C@H]1CO
RFP signal change (%): 1.88
--
compound: CC(C)(C)NC(=O)NC(=O)COC(=O)Cc1ccc(Cl)cc1Cl
RFP signal change (%): -0.643
--
compound: O=c1ccc2cc(S(=O)(=O)Nc3ccccc3F)ccc2o1
RFP signal change (%): 8.39
--
compound: CC(C)(C)NC(=O)NC(=O)COC(=O)Cc1c(F)cccc1Cl
RFP signal change (%): 3.43
--
compound: Cc1cc(Nc2ccc(Br)cc2)nc2ccccc12
RFP signal change (%): -13.6
--
compound: O=C(Nc1nnc(Cc2ccccc2)s1)c1cnccn1
RFP signal change (%): 1.31
--
compound: CCOC(=O)C1(C)NC(c2ccco2)C2C(=O)N(c3ccccc3)C(=O)C21 (stereo not given)
RFP signal change (%): 3.41
--
compound: CCc1nc(N2CCN(C(C)=O)CC2)c2c3c(sc2n1)CCCC3
RFP signal change (%): -2.91
--
compound: COc1ccc(C2=CN(Cc3ccccc3)C(c3ccc(OC)cc3)CC2=O)cc1 (stereo not given)
RFP signal change (%): 3.14
--
compound: CN(C)C(=O)c1ccc(-c2ccccc2[C@H]2[C@@H](CO)N(C(=O)C3CCCCC3)[C@H]2C#N)cc1
RFP signal change (%): -4.88
--
compound: S=C(Nc1ccc(Cl)cc1Cl)N1CCCC1
RFP signal change (%): -5.19
--
compound: O=C(Nc1nnc(Cc2ccc(Cl)cc2)s1)c1ccncc1
RFP signal change (%): 10.4

// provenance: PubChem BioAssay AID720706
